Data origin: ChEMBL document CHEMBL4152256

experiment_notes: Genotoxicity in Salmonella typhimurium TA1535 harboring pSK1002 assessed as umu gene induction at 0.125 mg/ml in presence of Sprague-Dawley rat liver S9 fraction after by SOS/umu assay relative to control
Type: toxicity, organism-based
details: salmonella enterica subsp. enterica serovar typhimurium, read-out: FC
Below, each entry is listed alongside its reported fold induction at 0.125 mg/ml.

As a guide, the following entries are already answered.
OC(CCN1CC=C(c2ccc(F)cc2)CC1)c1ccc2c(c1)OCO2 (stereo unspecified) ... 1
OC(CCN1CCN(c2ccccc2C(F)(F)F)CC1)c1ccc(F)cc1 (stereo unspecified) ... 1.9
N#Cc1ccc(N2CCC(NCCC(O)c3ccc(F)c4ccccc34)CC2)c(C(F)(F)F)c1 (stereo in doubt; 72) ... 0.2
COc1ccccc1N1CCN(CCC(O)c2ccc(F)c3ccccc23)CC1 (stereo unspecified) ... 0.7

Quick one: fold induction at 0.125 mg/ml for N#Cc1ccc(N2CCC(NCCC(O)c3ccc(F)c4ccccc34)CC2)c(Cl)c1 (stereo unspecified) ? 0.1

Quick one: fold induction at 0.125 mg/ml for O=[N+]([O-])c1ccccc1N1CCN(CCC(O)c2ccc(F)c3ccccc23)CC1 (stereo unspecified) ? 1.3

Quick one: fold induction at 0.125 mg/ml for OC(CCN1CCN(C(c2ccccc2)c2ccccc2)CC1)c1ccc(F)c(F)c1 (stereo unspecified) ? 0.7

Quick one: fold induction at 0.125 mg/ml for COc1ccccc1N1CCN(CCC(O)c2ccc(F)cc2)CC1 (stereo in doubt; 66) ? 1

Quick one: fold induction at 0.125 mg/ml for O=[N+]([O-])c1ccc(N2CCN(CCC(O)c3ccc(F)c4ccccc34)CC2)cc1 (stereo unspecified) ? 0.5

Quick one: fold induction at 0.125 mg/ml for COc1ccccc1C1=CCN(CCC(O)c2ccc(F)cc2)CC1 (stereo unspecified) ? 1

Quick one: fold induction at 0.125 mg/ml for OC(CCN1CCN(c2ccccc2C(F)(F)F)CC1)c1ccc(F)c2ccccc12 (stereo in doubt; 55) ? 0.7

Quick one: fold induction at 0.125 mg/ml for COc1ccccc1C1=CCN(CCC(O)c2ccc(F)c3ccccc23)CC1 (stereo unspecified) ? 0.7

Quick one: fold induction at 0.125 mg/ml for Oc1ccc(C(O)CCN2CC=C(c3ccc(F)cc3)CC2)cc1 (stereo unspecified) ? 0.4

Quick one: fold induction at 0.125 mg/ml for N#Cc1ccc(C(O)CCN2CC=C(c3ccc(F)cc3)CC2)cc1 (stereo unspecified) ? 1

Quick one: fold induction at 0.125 mg/ml for OC(CCN1CCN(c2ccc(F)cc2)CC1)c1ccc(F)c2ccccc12 (stereo unspecified) ? 0.7

Quick one: fold induction at 0.125 mg/ml for Nc1ccc(N2CCC(NCCC(O)c3ccc(F)c4ccccc34)CC2)c(C(F)(F)F)c1 (stereo unspecified) ? 0.1

====

experiment_notes: Genotoxicity in Salmonella typhimurium TA1535 harboring pSK1002 assessed as survival at 0.002 mg/ml in absence of Sprague-Dawley rat liver S9 fraction after by SOS/umu assay relative to control
Type: toxicity, organism-based
details: salmonella enterica subsp. enterica serovar typhimurium, read-out: Survival
readout: viability at 0.002 mg/ml (%)
Return type: number; implicit unit %.

OC(CCN1CCN(C(c2ccccc2)c2ccccc2)CC1)c1ccc(Cl)cc1 (stereo not given) ... 108
O=[N+]([O-])c1ccccc1N1CCN(CCC(O)c2ccc(F)c3ccccc23)CC1 (stereo not given) ... 111
OC(CCN1CCN(c2ccccc2C(F)(F)F)CC1)c1ccc(F)c2ccccc12 (stereo in doubt; 55) ... 51.4
COc1ccccc1C1=CCN(CCC(O)c2ccc(F)cc2)CC1 (stereo not given) ... 103
OC(CCN1CCN(c2ccccc2C(F)(F)F)CC1)c1ccc(F)cc1 (stereo not given) ... 110
OC(CCN1CCN(C(c2ccccc2)c2ccccc2)CC1)c1ccc(F)cc1 (stereo not given) ... 95.9
N#Cc1ccc(N2CCC(NCCC(O)c3ccc(F)c4ccccc34)CC2)c(Br)c1 (stereo not given) ... 106
N#Cc1ccc(N2CCC(NCCC(O)c3ccc(F)c4ccccc34)CC2)c(Cl)c1 (stereo not given) ... 117

Quick one: viability at 0.002 mg/ml for COC(=O)c1ccc(C(O)CCN2CC=C(c3ccc(F)cc3)CC2)cc1 (stereo not given) ? 109

Quick one: viability at 0.002 mg/ml for OC(CCN1CCN(C(c2ccccc2)c2ccccc2)CC1)c1ccc(Br)cc1 (stereo not given) ? 105

====

experiment_notes: Genotoxicity in Salmonella typhimurium TA1535 harboring pSK1002 assessed as umu gene induction at 0.5 mg/ml in presence of Sprague-Dawley rat liver S9 fraction after by SOS/umu assay relative to control
Type: toxicity, organism-based
details: salmonella enterica subsp. enterica serovar typhimurium, read-out: FC
Hi! Just check whether fold induction at 0.5 mg/ml is below 1. Below gives fulfilled, equal or above gives not fulfilled.

OC(CCN1CCN(c2ccc(F)cc2)CC1)c1ccc(F)c2ccccc12 (configuration not stated) ... not fulfilled
N#Cc1ccc(C(O)CCN2CC=C(c3ccc(F)cc3)CC2)cc1 (configuration not stated) ... fulfilled
OC(CCN1CCN(c2ccccc2C(F)(F)F)CC1)c1ccc(F)cc1 (configuration not stated) ... not fulfilled

Here's an entry: COc1ccccc1C1=CCN(CCC(O)c2ccc(F)cc2)CC1 (configuration not stated) . Is its fold induction at 0.5 mg/ml below 1? not fulfilled

Here's an entry: OC(CCN1CCN(c2ccccc2C(F)(F)F)CC1)c1ccc(F)c2ccccc12 (stereo in doubt; 55) . Is its fold induction at 0.5 mg/ml below 1? fulfilled

Here's an entry: OC(CCN1CC=C(c2ccc(F)cc2)CC1)c1ccc2c(c1)OCO2 (configuration not stated) . Is its fold induction at 0.5 mg/ml below 1? fulfilled

Here's an entry: Nc1ccc(N2CCC(NCCC(O)c3ccc(F)c4ccccc34)CC2)c(C(F)(F)F)c1 (configuration not stated) . Is its fold induction at 0.5 mg/ml below 1? fulfilled

====

Below, each entry is listed alongside its reported viability at 0.5 mg/ml.
experiment_notes: Genotoxicity in Salmonella typhimurium TA1535 harboring pSK1002 assessed as survival at 0.5 mg/ml in absence of Sprague-Dawley rat liver S9 fraction after by SOS/umu assay relative to control
Type: toxicity, organism-based
details: salmonella enterica subsp. enterica serovar typhimurium, read-out: Survival
Return type: number; implicit unit %.

OC(CCN1CCN(c2ccc(F)cc2)CC1)c1ccc(F)c2ccccc12 (configuration not stated) ... 196
COc1ccccc1C1=CCN(CCC(O)c2ccc(F)cc2)CC1 (configuration not stated) ... 19.4
OC(CCN1CCN(c2ccccc2C(F)(F)F)CC1)c1ccc(F)cc1 (configuration not stated) ... 129
OC(CCN1CC=C(c2ccc(F)cc2)CC1)c1ccc2c(c1)OCO2 (configuration not stated) ... 81.4
OC(CCN1CCN(c2ccccc2C(F)(F)F)CC1)c1ccc(F)c2ccccc12 (stereo in doubt; 55) ... 175

Quick one: viability at 0.5 mg/ml for N#Cc1ccc(C(O)CCN2CC=C(c3ccc(F)cc3)CC2)cc1 (configuration not stated) ? 66.5

Quick one: viability at 0.5 mg/ml for Nc1ccc(N2CCC(NCCC(O)c3ccc(F)c4ccccc34)CC2)c(C(F)(F)F)c1 (configuration not stated) ? 68.2

====

Below, each entry is listed alongside its reported viability at 0.001 mg/ml.
experiment_notes: Genotoxicity in Salmonella typhimurium TA1535 harboring pSK1002 assessed as survival at 0.001 mg/ml in presence of Sprague-Dawley rat liver S9 fraction after by SOS/umu assay relative to control
Format: toxicity, organism-based
details: salmonella enterica subsp. enterica serovar typhimurium, read-out: Survival
Return type: number; implicit unit %.

As a guide, the following entries are already answered.
COc1ccccc1C1=CCN(CCC(O)c2ccc(F)cc2)CC1 (stereo not drawn) ... 103
OC(CCN1CCN(c2ccccc2C(F)(F)F)CC1)c1ccc(F)cc1 (stereo not drawn) ... 84.6
COc1ccccc1N1CCN(CCC(O)c2ccc(F)c3ccccc23)CC1 (stereo not drawn) ... 112
COc1ccccc1N1CCN(CCC(O)c2ccc(F)cc2)CC1 (stereo in doubt; 66) ... 91.6
OC(CCN1CCN(c2ccc(F)cc2)CC1)c1ccc(F)c2ccccc12 (stereo not drawn) ... 101
OC(CCN1CCN(C(c2ccccc2)c2ccccc2)CC1)c1ccc(F)cc1 (stereo not drawn) ... 95.7

Note: attention shifts to another entry.
Quick one: viability at 0.001 mg/ml for N#Cc1ccc(N2CCC(NCCC(O)c3ccc(F)c4ccccc34)CC2)c(Br)c1 (stereo not drawn) ? 87.2

====

experiment_notes: Genotoxicity in Salmonella typhimurium TA1535 harboring pSK1002 assessed as survival at 0.0002 mg/ml in absence of Sprague-Dawley rat liver S9 fraction after by SOS/umu assay relative to control
Type: toxicity, organism-based
details: salmonella enterica subsp. enterica serovar typhimurium, read-out: Survival
readout: viability at 0.0002 mg/ml (%)
Return type: number; implicit unit %.

OC(CCN1CCN(C(c2ccccc2)c2ccccc2)CC1)c1ccc(Cl)cc1 (centres undefined) ... 105
OC(CCN1CCN(C(c2ccccc2)c2ccccc2)CC1)c1ccc(Br)cc1 (centres undefined) ... 107
OC(CCN1CCN(C(c2ccccc2)c2ccccc2)CC1)c1ccc(F)cc1 (centres undefined) ... 102

Note: attention shifts to another entry.
Quick one: viability at 0.0002 mg/ml for OC(CCN1CCN(C(c2ccccc2)c2ccccc2)CC1)c1ccc(F)c(Cl)c1 (centres undefined) ? 110
